Test: acute toxicity in mice after single intravenous administration
Settings: mouse, in vivo
Measured Endpoint: LD50 (mg/kg)
Quick reminder: number only, in mg/kg, skip the unit.

Given item CN[C@@H]1[C@H](O[C@@H]2OC[C@@H](O)[C@H](O)[C@H]2O)[C@@H](O)[C@H](O[C@H]2c3cc(C)c(C(=O)NCC(=O)O)c(O)c3-c3c(cc4c(c3O)C(=O)c3cc(OC)cc(O)c3C4=O)[C@@H]2O)O[C@@H]1C [BU-3608 D] , the value recorded as its LD50 is 210
